Field: inhibition. Provide a value for each of the molecules that follow.
Biological target: Phospholipase A2 group V (Homo sapiens)
Assay: Inhibition of human group 5 secretory PLA2 at 0.091 mole fraction in mixed-micelles by modified Dole assay
Answers are plain numbers, in %.

Consider the following illustrative entries.
> print(dat)
                                 cpd.smiles  measured.attribute  meas.value
1    O=C(CCCCc1cccc2ccccc12)C(F)(F)C(F)(F)F          inhibition        29.4
2  COc1ccc2cc(CCCCC(=O)C(F)(F)C(F)(F)F)ccc2c1          inhibition        63.1
3       O=C(CCCCc1ccc(C(F)(F)F)cc1)C(F)(F)F          inhibition        30.4
4        COc1ccccc1CCCCC(=O)C(F)(F)C(F)(F)F          inhibition        39.1
5  O=C(CCCCc1ccc(-c2ccccc2)cc1)C(F)(F)C(F)(F)F          inhibition        38.3

The record that follows has no inhibition shown yet.
For the molecule `COc1ccc(CCCCC(=O)C(F)(F)C(F)(F)F)cc1` , give its reported inhibition.
32.8

====

Target: Phospholipase A2 group V (Homo sapiens) (UniProt P39877)
Sequence (P39877 whole entry): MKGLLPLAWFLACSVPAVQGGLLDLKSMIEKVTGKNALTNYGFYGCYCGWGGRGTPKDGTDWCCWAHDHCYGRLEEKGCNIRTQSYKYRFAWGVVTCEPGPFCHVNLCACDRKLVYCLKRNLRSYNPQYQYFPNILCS
Assay: Inhibition of human group 5 secretory PLA2 at 0.091 mole fraction in mixed-micelles by modified Dole assay
Field: inhibition. Provide a value for each of the compounds that follow.
One number for each entry, in %.

Consider the following illustrative entries.
> print(dat)
                                 cpd.smiles                              assay.system  unit.label  meas.value
1       O=C(CCCCc1ccc(F)cc1)C(F)(F)C(F)(F)F  Phospholipase A2 group V (Homo sapiens) (UniProt P39877)           %        29.3
2      O=C(CCCCc1ccc(-c2ccccc2)cc1)C(F)(F)F  Phospholipase A2 group V (Homo sapiens) (UniProt P39877)           %        40.5
3  O=C(CCCCc1ccc(C(F)(F)F)cc1)C(F)(F)C(F)(F)F  Phospholipase A2 group V (Homo sapiens) (UniProt P39877)           %        36.9

For the compound `COc1ccc2cc(CCCCC(=O)C(F)(F)F)ccc2c1` , give its reported inhibition.
41.7

====

Biological target: Cytosolic phospholipase A2 (Homo sapiens)
Assay: Inhibition of human group 4A cytosolic PLA2 at 0.091 mole fraction in mixed-micelles by modified Dole assay
Recorded inhibition split into classes 0 = under 40%, 1 = from 40% up to 70%, 2 = 70% and over

See these solved cases before continuing.
> print(dat)
                                 cpd.smiles  class.label
1  O=C(CCCCc1ccc(C(F)(F)F)cc1)C(F)(F)C(F)(F)F            1
2       O=C(CCCCc1ccc(C(F)(F)F)cc1)C(F)(F)F            2
3           O=C(CCCCc1cccc2ccccc12)C(F)(F)F            2
4  O=C(CCCCc1ccc(-c2ccccc2)cc1)C(F)(F)C(F)(F)F            2

Which category does the recorded inhibition put `COc1ccccc1CCCCC(=O)C(F)(F)F` in?
1

Which category does the recorded inhibition put `O=C(CCCCc1cccc2ccccc12)C(F)(F)C(F)(F)F` in?
1

Which category does the recorded inhibition put `COc1ccc(CCCCC(=O)C(F)(F)F)cc1OC` in?
0

Which category does the recorded inhibition put `O=C(CCc1ccccc1-c1ccccc1)C(F)(F)C(F)(F)F` in?
0

Which category does the recorded inhibition put `O=C(CCCCc1ccc2c(c1)OCO2)C(F)(F)F` in?
1

Which category does the recorded inhibition put `O=C(CCCCc1cccc2ccccc12)C(F)(F)C(F)(F)C(F)(F)F` in?
1

Which category does the recorded inhibition put `O=C(CCCCc1ccccc1)C(F)F` in?
0

====

Biological target: Cytosolic phospholipase A2 (Homo sapiens) (UniProt P47712)
Sequence (P47712 whole entry): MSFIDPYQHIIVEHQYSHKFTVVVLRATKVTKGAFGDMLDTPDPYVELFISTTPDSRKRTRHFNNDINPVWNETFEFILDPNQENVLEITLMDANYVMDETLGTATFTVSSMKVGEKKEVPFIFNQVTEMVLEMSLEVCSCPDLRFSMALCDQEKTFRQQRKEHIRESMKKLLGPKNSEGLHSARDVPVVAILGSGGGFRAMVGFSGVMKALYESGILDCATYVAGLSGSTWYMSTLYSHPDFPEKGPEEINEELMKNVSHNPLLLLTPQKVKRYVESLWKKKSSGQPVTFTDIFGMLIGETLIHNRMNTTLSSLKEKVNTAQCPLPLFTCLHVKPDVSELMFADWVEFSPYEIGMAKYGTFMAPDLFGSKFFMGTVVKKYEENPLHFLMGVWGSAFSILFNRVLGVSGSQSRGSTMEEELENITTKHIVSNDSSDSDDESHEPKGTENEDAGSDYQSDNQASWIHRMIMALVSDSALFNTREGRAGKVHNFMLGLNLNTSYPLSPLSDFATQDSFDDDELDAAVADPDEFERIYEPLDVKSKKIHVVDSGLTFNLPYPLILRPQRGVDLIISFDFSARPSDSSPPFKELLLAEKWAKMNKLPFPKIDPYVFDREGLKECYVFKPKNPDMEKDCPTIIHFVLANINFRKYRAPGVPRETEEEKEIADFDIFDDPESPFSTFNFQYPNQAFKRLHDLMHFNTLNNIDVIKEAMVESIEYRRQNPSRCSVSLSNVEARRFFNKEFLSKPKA
Test: Inhibition of human group 4A cytosolic PLA2 at 0.091 mole fraction in mixed-micelles by modified Dole assay
MEASURED ATTRIBUTE: inhibition (%)
One number for each entry, in %.

> print(dat)
                                 cpd.smiles  unit.label  meas.value
1              O=C(CCCCc1ccc(F)cc1)C(F)(F)F           %        41.4
2      O=C(CCCCc1ccc(-c2ccccc2)cc1)C(F)(F)F           %        96.5
3   O=C(CCCCc1ccc2c(c1)OCO2)C(F)(F)C(F)(F)F           %        38.3
4  COc1ccc(CCCCC(=O)C(F)(F)C(F)(F)F)c(OC)c1           %        35.6

For the molecule `COc1ccc2cc(CCCCC(=O)C(F)(F)F)ccc2c1` , give its reported inhibition.
85.5
